# Post-emergence Test SETFA, percentage damage to the plant (five-point scale) listing for each entry below
System: Setaria faberi (SETFA)
Assay: Post-emergence Test (glasshouse, percentage damage to the plant)
Assay type: in vivo
Settings: post-emergence spray, 1000 g/ha unless otherwise stated, evaluated after 13 days

Exam item: For the compound CCn1c(C)c(-c2cncn2C)c(=O)c(C(=O)OC)c1-c1ccc(Cl)c(Cl)c1 , what Post-emergence Test SETFA, percentage damage to the plant (five-point scale) is on record?
Marked response: 1 (1=0-20%)

Exam item: Can you handle CCn1c(C)c(-c2ccc(Cl)c(C#N)c2)c(=O)c(C(=O)O)c1-c1ccc(Cl)cc1 next?
Marked response: 3 (3=41-60%)

Exam item: Next entry: CCn1c(C)c(-c2ccc(Cl)cc2)c(=O)c(C(=O)NN(C)C)c1-c1ccc(Cl)c(Cl)c1
Marked response: 4 (4=61-80%)

Exam item: Now give it for CCn1c(C)c(-c2cccc(SC)c2)c(=O)c(C(=O)O)c1-c1ccc(Cl)c(Cl)c1 too.
Marked response: 1 (1=0-20%)

----------
Recorded percentage damage to the plant, AMARE by entry
System: Amaranthus retoflexus (AMARE)
Assay: Pre-emergence Test (glasshouse, percentage damage to the plant)
Type: in vivo
Conditions: 1000 g/ha unless otherwise stated, five-point scale

# annotated cases, reported percentage damage to the plant, AMARE shown
compound=Cc1c(-c2ccc(Cl)cc2)c(=O)c(C(=O)O)c(-c2ccc(Cl)c(Cl)c2)n1C experimental_endpoint="percentage damage to the plant, AMARE" reported_measurement="4 (4=61-80%)"
compound=CCn1c(C)c(-c2cc(C)c(Cl)c(C)c2)c(=O)c(C(=O)O)c1-c1ccc(Cl)cc1 experimental_endpoint="percentage damage to the plant, AMARE" reported_measurement=0
compound=CCn1c(C)c(-c2cc(Cl)c(F)c(Cl)c2)c(=O)c(C(=O)O)c1-c1ccc(Cl)cc1 experimental_endpoint="percentage damage to the plant, AMARE" reported_measurement=0
compound=CCOC(=O)c1c(-c2ccc(F)c(F)c2)n(CC)c(C)c(-c2ccc(Cl)cc2)c1=O experimental_endpoint="percentage damage to the plant, AMARE" reported_measurement=0
compound=CCn1c(C)c(-c2ccnc(F)c2)c(=O)c(C(=O)O)c1-c1ccc(Cl)c(Cl)c1 experimental_endpoint="percentage damage to the plant, AMARE" reported_measurement="1 (1=0-20%)"
compound=CCOc1cc(-c2c(C)n(CC)c(-c3ccc(Cl)cc3)c(C(=O)O)c2=O)ccc1C(F)(F)F experimental_endpoint="percentage damage to the plant, AMARE" reported_measurement=0

Exam item: For the compound CCn1c(C)c(-c2ccc(F)cc2OC)c(=O)c(C(=O)OC)c1-c1ccc(Cl)c(Cl)c1 [Compound 163] , what percentage damage to the plant, AMARE is on record?
Marked response: 1 (1=0-20%)

----------
Listed here are compounds together with their documented Post-emergence Test ECHCG, percentage damage to the plant (five-point scale).
System: Echinochloa crus-galli (ECHCG)
Test: Post-emergence Test (glasshouse, percentage damage to the plant)
Format: in vivo
Settings: post-emergence spray, 1000 g/ha unless otherwise stated, evaluated after 13 days

Use these answered entries as a reference point.
smiles_string=CCn1c(C)c(-c2ccc(F)cc2F)c(=O)c(C(=O)O)c1-c1ccc(Cl)c(Cl)c1 reported_measurement="5 (5=81-100%)"
smiles_string=CCn1c(C)c(-c2cccc(C(F)(F)F)c2)c(=O)c(C(=O)O)c1-c1ccc(Cl)c(Cl)n1 reported_measurement="1 (1=0-20%)"

Exam item: Consider the compound shown here: CCn1c(COC)c(-c2ccc(Cl)cc2)c(=O)c(C(=O)O)c1-c1ccc(Cl)c(Cl)c1 What is its recorded Post-emergence Test ECHCG, percentage damage to the plant (five-point scale)?
Marked response: 4 (4=61-80%)

Exam item: Same question, CCn1c(C)c(-c2ccsc2)c(=O)c(C(=O)O)c1-c1ccc(Cl)c(Cl)c1 this time
Marked response: 2 (2=21-40%)

Exam item: Same for CCn1c(C)c(-c2ccc(SC)cc2)c(=O)c(C(=O)O)c1-c1ccc(Cl)c(Cl)c1
Marked response: 3 (3=41-60%)

Exam item: Item: CCn1c(C)c(-c2ccc(Cl)cc2)c(=O)c(C(=O)O)c1-c1ccc(Cl)cc1
Marked response: 2 (2=21-40%)

----------
System: Setaria faberi (SETFA)
Experiment: Post-emergence Test (glasshouse, percentage damage to the plant)
Type: in vivo
Settings: post-emergence spray, 1000 g/ha unless otherwise stated, evaluated after 13 days
experimental-endpoint: Post-emergence Test SETFA, percentage damage to the plant (five-point scale)

compound=CCOc1cc(-c2c(C)n(CC)c(-c3ccc(Cl)c(Cl)c3)c(C(=O)O)c2=O)ccc1C#N study_system="Setaria faberi (SETFA)" reported_measurement="2 (2=21-40%)"
compound=CCn1c(C)c(-c2cccc(C(F)(F)F)c2F)c(=O)c(C(=O)O)c1-c1ccc(Cl)cc1 study_system="Setaria faberi (SETFA)" reported_measurement="3 (3=41-60%)"
compound=CCn1c(C)c(-c2ccc(Cl)s2)c(=O)c(C(=O)O)c1-c1ccc(Cl)c(Cl)c1 study_system="Setaria faberi (SETFA)" reported_measurement="3 (3=41-60%)"
compound=CCn1c(C)c(-c2ccc(Cl)nc2)c(=O)c(C(=O)O)c1-c1ccc(Cl)c(Cl)c1 study_system="Setaria faberi (SETFA)" reported_measurement="5 (5=81-100%)"
compound=CCn1c(C)c(-c2cccc(Cl)c2)c(=O)c(C(=O)O)c1-c1ccnc(Cl)c1 study_system="Setaria faberi (SETFA)" reported_measurement="3 (3=41-60%)"

Exam item: Consider the compound shown here: CCn1c(C)c(-c2ccc(C(F)(F)F)cc2)c(=O)c(C(=O)O)c1-c1ccc(Cl)c(Cl)c1 What is its recorded Post-emergence Test SETFA, percentage damage to the plant (five-point scale)?
Marked response: 5 (5=81-100%)

----------
Test system: Setaria faberi (SETFA)
Experiment: Post-emergence Test (glasshouse, percentage damage to the plant)
Assay type: in vivo
Conditions: post-emergence spray, 1000 g/ha unless otherwise stated, evaluated after 13 days
Reported values of Post-emergence Test SETFA, percentage damage to the plant (five-point scale) for individual entries

smiles_string=CCn1c(C)c(-c2ccc(OC(F)(F)F)cc2)c(=O)c(C(=O)O)c1-c1ccc(F)cc1F reported_measurement="4 (4=61-80%)"

Exam item: # input compound: CCn1c(C)c(-c2ccc(Cl)c(Cl)c2)c(=O)c(C(=O)O)c1-c1ccc(Cl)c(Cl)c1 ; wanted: its Post-emergence Test SETFA, percentage damage to the plant (five-point scale)
Marked response: 3 (3=41-60%)

Exam item: Entry to check: CCn1c(C)c(-c2cccnc2)c(=O)c(C(=O)O)c1-c1ccc(Cl)c(Cl)c1
Marked response: 4 (4=61-80%)

----------
System: Echinochloa crus-galli (ECHCG)
Experiment: Post-emergence Test (glasshouse, percentage damage to the plant)
Format: in vivo
Conditions: post-emergence spray, 1000 g/ha unless otherwise stated, evaluated after 13 days
Recorded measurements of Post-emergence Test ECHCG, percentage damage to the plant (five-point scale), one per entry

compound="Cc1c(-c2ccc(Cl)cc2)c(=O)c(C(=O)O)c(-c2ccc(Cl)c(Cl)c2)n1C [Compound 5]" reported_measurement="5 (5=81-100%)"
compound="CCn1c(C)c(-c2cccs2)c(=O)c(C(=O)O)c1-c1ccc(Cl)cc1 [Compound 165]" reported_measurement=0

Exam item: Recorded Post-emergence Test ECHCG, percentage damage to the plant (five-point scale) for CCn1c(C)c(-c2cc(F)c(F)c(F)c2)c(=O)c(C(=O)O)c1-c1ccc(Cl)c(Cl)c1 [Compound 73] , please?
Marked response: 3 (3=41-60%)

Exam item: Input CCn1c(C)c(-c2ccc(F)c(F)c2)c(=O)c(C(=O)O)c1-c1ccc(Cl)c(Cl)c1 [Compound 104]
Marked response: 3 (3=41-60%)

Exam item: Now the same for CCn1c(C)c(-c2ccc(F)cc2C)c(=O)c(C(=O)O)c1-c1ccc(Cl)c(Cl)c1 [Compound 155]
Marked response: 4 (4=61-80%)

Exam item: Subsequent entry: CCn1c(C)c(-c2cnc(F)c(F)c2)c(=O)c(C(=O)O)c1-c1ccc(Cl)c(Cl)c1 [Compound 59]
Marked response: 3 (3=41-60%)

Exam item: Follow-up entry: CCn1c(C)c(-c2ccc(Cl)c(C#N)c2)c(=O)c(C(=O)O)c1-c1ccc(Cl)c(Cl)c1 [Compound 57]
Marked response: 3 (3=41-60%)

----------
Tested on: Zea mays (ZEAMX)
Test: Pre-emergence Test (glasshouse, percentage damage to the plant)
Format: in vivo
Conditions: 1000 g/ha unless otherwise stated, five-point scale
Reported percentage damage to the plant, ZEAMX by item:

Use the examples below as a reference point.
molecule="CCn1c(C)c(-c2cnccn2)c(=O)c(C(=O)O)c1-c1ccc(Cl)cn1 [Compound 168]" reported_measurement=0
molecule="CCOC(=O)c1c(-c2ccc(F)c(F)c2)n(CC)c(C)c(-c2ccc(Cl)cc2)c1=O [Compound 152]" reported_measurement=0

Exam item: Using the record for CCn1c(C)c(C2=CCCC2)c(=O)c(C(=O)O)c1-c1ccc(Cl)c(Cl)c1 [Compound 68] , report its percentage damage to the plant, ZEAMX.
Marked response: 1 (1=0-20%)

Exam item: Now try CCn1c(C)c(-c2ccc(OC)c(F)c2)c(=O)c(C(=O)O)c1-c1ccc(Cl)c(Cl)c1 [Compound 102] .
Marked response: 1 (1=0-20%)

Exam item: Could you do the same for CCn1c(C)c(-c2cccc(Cl)c2)c(=O)c(C(=O)O)c1-c1ccnc(Cl)c1 [Compound 144] , please?
Marked response: 2 (2=21-40%)

Exam item: # iterate: CCn1c(C)c(-c2ccc(Cl)cc2)c(=O)c(C(=O)O)c1-c1ccc(F)cc1F [Compound 130]
Marked response: 3 (3=41-60%)

Exam item: Now give it for CCn1c(C)c(-c2ccn(C)c(=O)c2)c(=O)c(C(=O)O)c1-c1ccc(Cl)c(Cl)c1 [Compound 58] too.
Marked response: 1 (1=0-20%)

All values here come from patent US12660819B2.
